- TARGET ENTITY: T1, human ISLR2 ECD-Fc (human, UniProt Q6UXK2 19-589, biotin on the AviTag (as SPR ligand))
- T1 sequence: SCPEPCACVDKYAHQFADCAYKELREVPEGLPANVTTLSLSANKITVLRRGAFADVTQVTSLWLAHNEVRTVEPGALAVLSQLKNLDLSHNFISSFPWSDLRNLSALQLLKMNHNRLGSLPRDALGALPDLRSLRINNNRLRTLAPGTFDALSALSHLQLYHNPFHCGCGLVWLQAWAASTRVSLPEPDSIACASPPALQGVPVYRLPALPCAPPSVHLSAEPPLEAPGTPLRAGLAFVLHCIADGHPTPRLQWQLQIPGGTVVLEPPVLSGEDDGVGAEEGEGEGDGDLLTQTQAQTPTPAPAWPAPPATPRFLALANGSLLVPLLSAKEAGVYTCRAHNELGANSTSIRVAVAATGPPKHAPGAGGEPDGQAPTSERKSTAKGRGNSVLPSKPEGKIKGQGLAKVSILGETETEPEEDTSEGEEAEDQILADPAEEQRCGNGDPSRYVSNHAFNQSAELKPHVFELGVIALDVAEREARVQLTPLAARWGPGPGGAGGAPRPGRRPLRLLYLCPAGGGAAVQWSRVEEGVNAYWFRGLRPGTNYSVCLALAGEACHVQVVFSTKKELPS
- TEST SUMMARY: SPR
MEASURED METRIC: binding result

Recombinant Mouse Leptin Protein (monomer) (ligand) VPIQKVQDDTKTLIKTIVTRINDISHTQSVSAKQRVTGLDFIPGLHPILSLSKMDQTLAVYQQVLTSLPSQNVLQIANDLENLRDLLHLLAFSKSCSLPQTSGLQKPESLDGVLEASLYSTEVVALSRLQGSLQDILQQLDVSPEC ... binds
